The measurements presented in this section are drawn from patent US20090081760A1.

Test system: Dicamba
Assay: LC-MS/MS screen for oxygenase (DMO) activity: E. coli liquid culture expressing ddmC or a variant, grown with dicamba, DCSA detected in supernatant
Format: cell-based
Conditions: residue changed to M; mean +/− SD (n)
Observable: Changed to: M DCSA values (ppm)

Known Changed to: M DCSA values (ppm) results, listed for orientation:
[[record]]
molecule = "A169M: DMO substitution variant (protein) MATFVRNAWYVAALPEELSEKPLGRTILDTPLALYRQPDGVVAALLDICPHRFAPLSDGILVNGHLQCPYHGLEFDGGGQCVHNPHGNGARPASLNVRSFPVVERDALIWICPGDPALADPGAIPDFGCRVDPAYRTVGGYGHVDCNYKLLVDNLMDLGHAQYVHRANMQTDAFDRLEREVIVGDGEIQALMKIPGGTPSVLMAKFLRGANTPVDAWNDIRWNKVSAMLNFIAVAPEGTPKEQSIHSRGTHILTPETEASCHYFFGSSRNFGIDDPEMDGVLRSWQAQALVKEDKVVVEAIERRRAYVEANGIRPAMLSCDEAAVRVSREIEKLEQLEAARLEHHHHHH"
observable = "Changed to: M DCSA values (ppm)"
observed_value = "28.9 +/− 5.06 (4) ppm"

[[record]]
molecule = "A287M: DMO substitution variant (protein) MATFVRNAWYVAALPEELSEKPLGRTILDTPLALYRQPDGVVAALLDICPHRFAPLSDGILVNGHLQCPYHGLEFDGGGQCVHNPHGNGARPASLNVRSFPVVERDALIWICPGDPALADPGAIPDFGCRVDPAYRTVGGYGHVDCNYKLLVDNLMDLGHAQYVHRANAQTDAFDRLEREVIVGDGEIQALMKIPGGTPSVLMAKFLRGANTPVDAWNDIRWNKVSAMLNFIAVAPEGTPKEQSIHSRGTHILTPETEASCHYFFGSSRNFGIDDPEMDGVLRSWQMQALVKEDKVVVEAIERRRAYVEANGIRPAMLSCDEAAVRVSREIEKLEQLEAARLEHHHHHH"
observable = "Changed to: M DCSA values (ppm)"
observed_value = "39.7 +/− 5.86 (4) ppm"

[[record]]
molecule = "R248M: DMO substitution variant (protein) MATFVRNAWYVAALPEELSEKPLGRTILDTPLALYRQPDGVVAALLDICPHRFAPLSDGILVNGHLQCPYHGLEFDGGGQCVHNPHGNGARPASLNVRSFPVVERDALIWICPGDPALADPGAIPDFGCRVDPAYRTVGGYGHVDCNYKLLVDNLMDLGHAQYVHRANAQTDAFDRLEREVIVGDGEIQALMKIPGGTPSVLMAKFLRGANTPVDAWNDIRWNKVSAMLNFIAVAPEGTPKEQSIHSMGTHILTPETEASCHYFFGSSRNFGIDDPEMDGVLRSWQAQALVKEDKVVVEAIERRRAYVEANGIRPAMLSCDEAAVRVSREIEKLEQLEAARLEHHHHHH"
observable = "Changed to: M DCSA values (ppm)"
observed_value = "34.13 +/− 3.09 (4) ppm"


Here's the next entry for you.
[in] Name the recorded Changed to: M DCSA values (ppm) for N218M: DMO substitution variant (protein) MATFVRNAWYVAALPEELSEKPLGRTILDTPLALYRQPDGVVAALLDICPHRFAPLSDGILVNGHLQCPYHGLEFDGGGQCVHNPHGNGARPASLNVRSFPVVERDALIWICPGDPALADPGAIPDFGCRVDPAYRTVGGYGHVDCNYKLLVDNLMDLGHAQYVHRANAQTDAFDRLEREVIVGDGEIQALMKIPGGTPSVLMAKFLRGANTPVDAWMDIRWNKVSAMLNFIAVAPEGTPKEQSIHSRGTHILTPETEASCHYFFGSSRNFGIDDPEMDGVLRSWQAQALVKEDKVVVEAIERRRAYVEANGIRPAMLSCDEAAVRVSREIEKLEQLEAARLEHHHHHH .
[out] 40.87 +/− 0.62 (2) ppm
